- Read-out: Monokine induced gamma interferon (MIG), CXCL9 (gene 4283)
- Test method notes: BSK_BE3C_MIG: BioMAP Diversity Plus: BE3C Assay for Monokine induced gamma interferon (MIG) Biomarker Activity (AID 2283035);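 as to outcome: MIG protein measured by ELISA in BE3C cultures after 24 h of dosing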
- Measurement setup: primary human bronchial epithelial cells; actives raise or lower the signal
- Description: BSK_BE3C is a cell-based, multiplexed-readout assay that uses bronchial epithelial cell, a human lung primary cell, with measurements taken at 24 hours after chemical dosing in a 96-well plate.BSK_BE3C_MIG is an assay component measured in the BSK_BE3C assay. It measures MIG antibody related to regulation of gene expression using ELISA technology.Data from the assay component BSK_BE3C_MIG was analyzed into 1 assay endpoint. […]
Calls of active or inactive are those of the source. The calls were made as follows: active = hit-call score of the fitted dose curve at least 0.9, where 1 is the maximum; inactive = score below 0.9.
Parameter call: string, one of 1 (yes) for active, 0 (no) for inactive

Q: Kindly provide the recorded test outcome for the following compound: `CC[C@H]1OC(=O)[C@H](C)[C@@H](O[C@H]2C[C@@](C)(OC)[C@@H](O)[C@H](C)O2)[C@H](C)[C@@H](O[C@@H]2O[C@H](C)C[C@H](N(C)C)[C@H]2O)[C@](C)(O)C[C@@H](C)C(=O)[C@H](C)[C@@H](O)[C@]1(C)O`
A: 0 (no)

Q: Kindly provide the recorded test outcome for the following compound: `CC[C@H](C)C(=O)O[C@H]1C[C@@H](C)C=C2C=C[C@H](C)[C@H](CC[C@@H]3C[C@@H](O)CC(=O)O3)[C@H]21`
A: 1 (yes)

Q: Kindly provide the recorded test outcome for the following compound: `Cc1ccc(S(=O)(=O)O)cc1C`
A: 0 (no)

Q: Kindly provide the recorded test outcome for the following compound: `COc1ccc(/C=C/S(=O)(=O)NC(=O)c2ccc(C)cc2Cl)cc1`
A: 0 (no)

###

- Read-out: Monocyte Chemoattractant Protein-1 (MCP1), CCL2 (gene 6347)
- Test method notes: BSK_LPS_MCP1: BioMAP Diversity Plus: LPS Assay for Monocyte Chemoattractant Protein-1 (MCP1) Biomarker Activity (AID 2283081)
- Measurement setup: primary human HUVEC with PBMC; actives raise or lower the signal
Active and inactive are the calls of the source. Rule for the calls: active = hit-call score of the fitted dose curve at least 0.9, where 1 is the maximum; inactive = score below 0.9.
Parameter call: string, one of TRUE for active, FALSE for inactive

Sample answers from the record:
CC(C)CCCCCCOC(=O)c1ccc(C(=O)OCCCCCCC(C)C)c(C(=O)OCCCCCCC(C)C)c1 = FALSE
CC(C)CCO = FALSE
COC(=O)c1c(Cl)c(Cl)c(C(=O)OC)c(Cl)c1Cl = FALSE
CC[C@H]1OC(=O)[C@H](C)[C@@H](O[C@H]2C[C@@](C)(OC)[C@@H](O)[C@H](C)O2)[C@H](C)[C@@H](O[C@@H]2O[C@H](C)C[C@H](N(C)C)[C@H]2O)[C@](C)(O)C[C@@H](C)C(=O)[C@H](C)[C@@H](O)[C@]1(C)O = FALSE
COCCOCCOCCOC = FALSE

Q: Kindly provide the recorded test outcome for the following compound: `Nc1nc2ncc(CNc3ccc(C(=O)N[C@@H](CCC(=O)O)C(=O)O)cc3)nc2c(=O)[nH]1`
A: FALSE

Q: Kindly provide the recorded test outcome for the following compound: CCOC(=O)COc1ccc2c(c1)CC(NCC(O)c1cccc(Cl)c1)CC2 (centres undefined)
A: TRUE

Q: Kindly provide the recorded test outcome for the following compound: `CC(C)CCCCCCCOC(=O)CCCCC(=O)OCCCCCCCC(C)C`
A: FALSE

Q: Kindly provide the recorded test outcome for the following compound: Fc1ccccc1[C@@H](F)COC1CCC(Nc2ncnc3[nH]ncc23)CC1 (some centres undefined)
A: TRUE

###

- Test method notes: CCTE_Shafer_MEA_dev_per_burst_spike_percent: CCTE's Neural Network Formation Assay for Percent of Spikes in a Burst, Shafer Lab (AID 2284032)
The source made the active and inactive calls. Rule for the calls: active = hit-call score of the fitted dose curve at least 0.9, where 1 is the maximum; inactive = score below 0.9.
Parameter call: string, one of active, inactive

Sample answers from the record:
COc1ccc(-n2nc(C(F)F)cc2-c2ccc(S(C)=O)cc2)cc1 (stereo unspecified) = inactive
O=P(OC(CCl)CCl)(OC(CCl)CCl)OC(CCl)CCl = inactive
O=C1CCC(N2C(=O)c3ccccc3C2=O)C(=O)N1 (stereo unspecified) = inactive
CCC(C)(C)C(=O)O[C@H]1C[C@@H](C)C=C2C=C[C@H](C)[C@H](CC[C@@H]3C[C@@H](O)CC(=O)O3)[C@H]21 = active
NC(=O)NO = inactive

Q: Kindly provide the recorded test outcome for the following molecule: `Cn1c(=O)c2c(ncn2C)n(C)c1=O`
A: inactive

###

- Subject of test: rat Neonicotinoid receptor (NNR), Chrna7 (gene 25302)
- Test method notes: NVS_LGIC_rNNR_BungSens: NovaScreen (NVS) Ligand-Gated Ion Channel Assay for rat Neonicotinoid receptor (NNR) (AID 2283315)
- Description: NVS_LGIC_rNNR_BungSens is a biochemical, single-readout assay that uses extracted gene-proteins from Rat cortical membranes in a tissue-based cell-free assay. Measurements were taken 2.5 hours after chemical dosing in a 48-well plate.NVS_LGIC_rNNR_BungSens is one of one assay component(s) measured or calculated from the NVS_LGIC_rNNR_BungSens assay. […] Furthermore, this assay endpoint can be referred to as a primary readout, because the performed assay has only produced 1 assay endpoint. […]
Records with an inconclusive call do not appear. Active and inactive are the calls of the source. Rule for the calls: active = hit-call score of the fitted dose curve at least 0.9, where 1 is the maximum; inconclusive = response in the unintended direction; inactive = score below 0.9.
Parameter call: string, one of active, inactive

O=C(NS(=O)(=O)/C=C/c1ccccc1)c1ccc(F)cc1Cl = inactive

Q: Kindly provide the recorded test outcome for the following compound: COc1ccc(-n2nc(C(F)F)cc2-c2ccc(S(C)=O)cc2)cc1 (configuration not stated)
A: inactive

Q: Kindly provide the recorded test outcome for the following compound: CNS(=O)(=O)c1cc(C(=O)N2CCC(CCN3C4CCC3CC(n3c(C)nc5ccccc53)C4)(c3cccc(F)c3)CC2)c(Cl)cc1F (configuration not stated)
A: active

Q: Kindly provide the recorded test outcome for the following compound: `CC(C)CCO`
A: inactive

###

- Read-out: Interleukin-8 (IL8), CXCL8 (gene 3576)
- Test method notes: BSK_CASM3C_IL8: BioMAP Diversity Plus: CASM3C Assay for Interleukin-8 (IL8) Biomarker Activity (AID 2283042);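 also: IL-8 protein level quantified by ELISA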
- Measurement setup: primary human coronary artery smooth muscle cells; actives raise or lower the signal
Calls of active or inactive are those of the source. How the source made its calls: active means hit-call score of the fitted dose curve at least 0.9, where 1 is the maximum; inactive means score below 0.9.
Parameter call: string, one of active, inactive

Sample answers from the record:
Cn1c(=O)cc(Oc2ccc(F)cc2F)c2cnc(NCC(C)(C)O)nc21 = active
CCOC(=O)c1ccc(C2CCC(NC[C@H](O)COc3ccc(O)c(NS(C)(=O)=O)c3)CC2)cc1 (stereo partly drawn) = inactive
Oc1ccc2c(c1)-c1ccccc1C2 = inactive
NC(=O)NO = inactive
CCNc1ccccc1 = inactive

Q: Kindly provide the recorded test outcome for the following compound: `Cc1[nH]cnc1C[C@H]1CCc2c(C)c3ccccc3n2C1=O`
A: inactive

Q: Kindly provide the recorded test outcome for the following compound: `CC1=CC(=O)CC(C)(C)C1`
A: inactive

Q: Kindly provide the recorded test outcome for the following compound: `CCCCCCc1ccc(O)cc1O`
A: inactive

Q: Kindly provide the recorded test outcome for the following compound: `O=C(O)c1cc(N=Nc2ccc(S(=O)(=O)Nc3ccccn3)cc2)ccc1O`
A: inactive

###

- Read-out: Monokine induced gamma interferon (MIG), CXCL9 (gene 4283)
- Test method notes: BSK_hDFCGF_MIG: BioMAP Diversity Plus: hDFCGF Assay for Monokine induced gamma interferon (MIG) Biomarker Activity (AID 2283063)
- Measurement setup: primary human foreskin fibroblasts; actives raise or lower the signal
Active and inactive are the calls of the source. How the source made its calls: active means hit-call score of the fitted dose curve at least 0.9, where 1 is the maximum; inactive means score below 0.9.
Quantity measured: AC50

Please review the entries below; each comes with its answer.
CCOc1cccc(-n2cc(C(=O)N3CCN(c4cc(C(=O)O)c5ccccc5c4)CC3)nc2-c2ccc(C)cc2)c1 = 26.3 µM (active)
CC(C)c1cccc(C(C)C)c1N1C(=O)c2ccc(O)cc2C1=O = 31.9 µM (active)
COC(=O)CC(=O)OC = inactive
CCOC(=O)c1ccc(C2CCC(NC[C@H](O)COc3ccc(O)c(NS(C)(=O)=O)c3)CC2)cc1 (some centres not stated) = 24.7 µM (active)
Cn1cnc([N+](=O)[O-])c1Sc1ncnc2nc[nH]c12 = inactive

Batch request: AC50 for each of the following molecules.
1. O=C(O)c1cccc(Oc2ccccc2)c1
2. CC(C)CCO

A:
["inactive", "inactive"]

###

- Test method notes: ATG_PBREM_CIS: Attagene CIS-FACTORIAL HepG2 Assay for human Phenobarbital-responsive Enhancer Module (PBREM) (AID 2282955)
- Measurement setup: HepG2 PBREM cis-reporter, Attagene multiplexed transcription; actives raise or lower the signal
Calls of active or inactive are those of the source. The calls were made as follows: active = hit-call score of the fitted dose curve at least 0.9, where 1 is the maximum; inactive = score below 0.9.
Parameter call: string, one of t = active, f = inactive

CC(C)CCCCCCCOC(=O)CCCCC(=O)OCCCCCCCC(C)C = f
CNCc1ccc(NC(=O)c2c[nH]c3c2C(=O)CCC3)cc1 = f
O=C1CCC(N2C(=O)c3ccccc3C2=O)C(=O)N1 (stereo not given) = f

Q: Kindly provide the recorded test outcome for the following compound: `O=C1CCCCCN1`
A: f

Q: Kindly provide the recorded test outcome for the following compound: O=c1[nH]c2ccc(S(=O)CCN3CCC(Cc4ccc(F)cc4)CC3)cc2o1 (stereo not given)
A: f

Q: Kindly provide the recorded test outcome for the following compound: `CC[C@H]1OC(=O)[C@H](C)[C@@H](O[C@H]2C[C@@](C)(OC)[C@@H](O)[C@H](C)O2)[C@H](C)[C@@H](O[C@@H]2O[C@H](C)C[C@H](N(C)C)[C@H]2O)[C@](C)(O)C[C@@H](C)C(=O)[C@H](C)[C@@H](O)[C@]1(C)O`
A: f

Q: Kindly provide the recorded test outcome for the following compound: `Cn1cnc([N+](=O)[O-])c1Sc1ncnc2nc[nH]c12`
A: f

Q: Kindly provide the recorded test outcome for the following compound: `Nc1ccc(Nc2ccccc2)cc1`
A: f

Q: Kindly provide the recorded test outcome for the following compound: CCOC(=O)COc1ccc2c(c1)CC(NCC(O)c1cccc(Cl)c1)CC2 (stereo not given)
A: t

Q: Kindly provide the recorded test outcome for the following compound: `CCN(C(=O)c1cc(C)cc(OC[C@H](C)Nc2ccncc2)c1)C(C)C`
A: f
